These measurements were taken from paper PMC4812144.

measured_on: Na+/K+-ATPase (NKA) (Sus scrofa, UniProt P05024)
Construct: The NKA was prepared from porcine kidney outer medulla; from tissue; host or cells: porcine kidney outer medulla
assay_remarks: Ouabain-sensitive ATPase activity of NKA (Baginsky assay)
Format: biochemical, porcine
applied_conditions: ouabain-sensitive ATPase activity, NKA from porcine kidney, 3 mM ATP; read-out: IC50 for inhibition of the NKA activity
pIC50: −log10 of the molar value.
endpoint_name: pIC50

compound	measured_on	observed
COc1cc(C2Oc3cc([C@H]4Oc5cc(O)cc(O)c5C(=O)[C@@H]4O)ccc3OC2CO)ccc1O (stereo partly shown)	Na+/K+-ATPase (NKA) (Sus scrofa, UniProt P05024)	< 3.00
COc1cc([C@@H]2[C@H]3CO[C@@]4(O)C(=O)[C@@H]2C=C([C@H]2Oc5cc(O)cc(O)c5C(=O)[C@@H]2O)[C@@H]34)ccc1O	Na+/K+-ATPase (NKA) (Sus scrofa, UniProt P05024)	< 3.00
O=c1c(O)c(-c2ccc(O)c(O)c2)oc2cc(O)cc(O)c12	Na+/K+-ATPase (NKA) (Sus scrofa, UniProt P05024)	< 3.00
O=C1c2c(O)cc(O)cc2OC(c2ccc(O)c(O)c2)C1O (stereo not shown)	Na+/K+-ATPase (NKA) (Sus scrofa, UniProt P05024)	< 3.00
